Attribution: patent US20220143061A1

Assign EC50 to each entry below.
target: human wild type STING (WT STING) (Homo sapiens, UniProt Q86WV6, H232R); construct: host or cells: 293T cells (ATCC CRL-3216), stably double transfected with pUNO1-hSTING-WT and pGL64.27-4×ISRE; assay: 293T WT STING standard reporter assay; format: cell-based; settings: 293T wtSTING-FL cells, no digitonin, 7 hours; ISRE firefly luciferase; read-out: 293T WT STING EC50
Sequence (Q86WV6 whole entry H232R): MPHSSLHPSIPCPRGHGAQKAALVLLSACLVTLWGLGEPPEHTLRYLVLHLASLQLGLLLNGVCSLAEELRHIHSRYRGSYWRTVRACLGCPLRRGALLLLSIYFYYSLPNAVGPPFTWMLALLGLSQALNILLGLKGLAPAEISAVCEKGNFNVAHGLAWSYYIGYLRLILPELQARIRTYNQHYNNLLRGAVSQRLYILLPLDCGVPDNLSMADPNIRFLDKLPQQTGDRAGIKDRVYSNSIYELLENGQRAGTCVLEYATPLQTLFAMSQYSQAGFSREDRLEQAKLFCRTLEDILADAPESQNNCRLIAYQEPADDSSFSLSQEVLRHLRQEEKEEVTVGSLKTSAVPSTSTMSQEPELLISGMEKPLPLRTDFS
Answers are plain numbers, in nM.

Previously resolved entries follow.
compound | output unit | EC50
CC1(C(=O)OCOP2(=O)CO[C@H]3[C@@H](F)[C@H](n4cnc5c(N)ncnc54)O[C@@H]3COP(=O)(OCOC(=O)C3(C)CCCCC3)O[C@H]3[C@@H](F)[C@H](n4cnc5c(N)ncnc54)O[C@@H]3CO2)CCCCC1 (single isomer, unassigned) [Compound 45c] | nM | 70
CC(C)(C)C(=O)OCOP1(=O)CO[C@H]2[C@@H](F)[C@H](n3cnc4c(N)ncnc43)O[C@@H]2COP(=O)(OCOC(=O)C(C)(C)C)O[C@H]2[C@@H](F)[C@H](n3cnc4c(N)ncnc43)O[C@@H]2CO1 (mixture of isomers) [Compound 41b] | nM | 30
CC(C)(C)C(=O)OCOP1(=O)CO[C@H]2[C@@H](F)[C@H](n3cnc4c(N)ncnc43)O[C@@H]2COP(=O)(OCOC(=O)C(C)(C)C)O[C@H]2[C@@H](F)[C@H](n3cnc4c(N)ncnc43)O[C@@H]2CO1 (single isomer, unassigned) [Compound 41a] | nM | 40

Attention now shifts to the item below.
Q: State the recorded EC50 for this entry: CC1(C(=O)OCOP2(=O)CO[C@H]3[C@@H](F)[C@H](n4cnc5c(N)ncnc54)O[C@@H]3COP(=O)(OCOC(=O)C3(C)CCCCC3)O[C@H]3[C@@H](F)[C@H](n4cnc5c(N)ncnc54)O[C@@H]3CO2)CCCCC1 (single isomer, unassigned) [Compound 45a]
Ans: 60
